Known Ratio of a selection of molecules
protocol_details: Eudismic ratio which is the ratio of potency of eutomer and distomer.
reported_property: Ratio

smiles_entry=C#C[C@@]1(O)C[C@H]2C[C@@H]1[C@@H]1CC(=C3CCC(=O)CC3)C[C@H]21 meas_value=4.2
smiles_entry=O=C1CCC(=C2C[C@@H]3[C@@H]4C[C@H]([C@@H]3C2)[C@@](O)(C(F)(F)F)C4)CC1 meas_value=2.6
smiles_entry=O=C1CCC(=C2C[C@@H]3[C@H](C2)[C@@H]2C[C@H]3[C@@H](O)C2)CC1 meas_value=2.7
smiles_entry=O=C1CCC(=C2C[C@@H]3[C@H]4CC(=O)[C@H](C4)[C@@H]3C2)CC1 meas_value=2.3
smiles_entry=O=C1CCC(=C2C[C@@H]3[C@H](C2)[C@@H]2C[C@H]3[C@H](O)C2)CC1 meas_value=15.5

====

study_target: Androgen receptor (Rattus norvegicus, UniProt P15207)
Sequence (P15207 whole entry): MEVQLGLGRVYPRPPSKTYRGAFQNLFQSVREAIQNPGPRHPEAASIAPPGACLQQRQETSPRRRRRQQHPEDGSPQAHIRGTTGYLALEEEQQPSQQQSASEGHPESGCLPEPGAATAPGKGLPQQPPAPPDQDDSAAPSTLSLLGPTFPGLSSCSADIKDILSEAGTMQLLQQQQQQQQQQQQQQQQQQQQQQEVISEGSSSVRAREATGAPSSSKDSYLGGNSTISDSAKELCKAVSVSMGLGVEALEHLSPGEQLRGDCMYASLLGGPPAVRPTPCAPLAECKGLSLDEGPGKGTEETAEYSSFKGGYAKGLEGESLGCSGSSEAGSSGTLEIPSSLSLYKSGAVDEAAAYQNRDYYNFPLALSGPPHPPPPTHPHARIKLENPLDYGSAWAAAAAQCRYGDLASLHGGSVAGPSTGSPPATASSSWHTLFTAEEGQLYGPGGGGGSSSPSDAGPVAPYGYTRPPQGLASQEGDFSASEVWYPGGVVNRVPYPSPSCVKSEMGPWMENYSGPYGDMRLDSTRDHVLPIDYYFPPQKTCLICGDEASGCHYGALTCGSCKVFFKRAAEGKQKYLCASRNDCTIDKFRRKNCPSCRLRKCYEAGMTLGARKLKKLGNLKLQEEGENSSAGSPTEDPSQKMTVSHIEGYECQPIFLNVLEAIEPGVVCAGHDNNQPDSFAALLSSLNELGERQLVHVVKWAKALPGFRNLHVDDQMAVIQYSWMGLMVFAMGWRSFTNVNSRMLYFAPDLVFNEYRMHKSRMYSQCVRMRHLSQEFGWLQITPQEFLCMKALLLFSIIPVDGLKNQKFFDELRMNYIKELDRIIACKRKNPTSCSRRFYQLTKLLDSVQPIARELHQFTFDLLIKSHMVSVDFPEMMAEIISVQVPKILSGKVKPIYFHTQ
pKi: −log10 of the molar value.
Known pKi of a selection of molecules
reported_property: pKi

molecule=O=C1CCC(=C2C[C@@H]3[C@H](C2)[C@@H]2C[C@H]3[C@H](O)C2)CC1 reported_property=pKi meas_value=6.35
molecule="C#C[C@]1(O)CC[C@H]2[C@@H]3CCC4Cc5nn(S(C)(=O)=O)cc5C[C@]4(C)[C@H]3CC[C@@]21C (some centres not stated)" reported_property=pKi meas_value=5.66
